Assay Text: Selectivity index, ratio of IC50 for human CCD-841 cells to IC50 for DLD1 human cells
Type: toxicity
Assay Context: CCD-841 cells versus DLD1 cells
Measured Parameter: selectivity ratio
Numbers only.

IN: Output selectivity ratio of COc1ccc(OC(=O)c2ccccc2OC(C)=O)c(/C=C/C(=O)c2ccc(Cl)cc2)c1
OUT: 7.2

----------
Test system: DLD-1
Assay Text: Antiproliferative activity against human DLD1 cells after 72 hrs by MTT assay
Assay type: functional, cell-based
Assay Context: DLD-1, 72 h
Measured Parameter: IC50 (µM)
Give bare numbers, in µM.

Here are 2 compounds together with their reported answers.
• O=C(/C=C/c1cc(F)ccc1O)c1ccc(Cl)cc1 = 13.2
• COc1ccc(OC(=O)c2ccccc2OC(C)=O)c(/C=C/C(=O)c2ccc(Cl)cc2)c1 = 2.7

Provide each entry's IC50 from the list below.
1. CC(=O)Oc1ccccc1C(=O)Oc1ccc(F)cc1/C=C/C(=O)c1ccc(Cl)cc1
2. COc1ccc(O)c(/C=C/C(=O)c2ccc(Cl)cc2)c1

OUT:
1. 3.5
2. 14.7

----------
Assay Text: Selectivity index, ratio of IC50 for human CCD-841 cells to IC50 for HCT8 human cells
Type: toxicity
Assay Context: CCD-841 cells versus HCT8 cells, read-out: Ratio IC50
Measured Parameter: selectivity ratio

IN: Check the records and state selectivity ratio for COc1ccc(OC(=O)c2ccccc2OC(C)=O)c(/C=C/C(=O)c2ccc(Cl)cc2)c1
OUT: 8
